- TEST_SYSTEM: JAK3 (JH1 and JH2 domain) (Homo sapiens, UniProt P52333)
- MEASUREMENT_DESCRIPTION: JAK3 Kinase Assay (ELISA of peptide substrate phosphorylation)
- REPORTED_CONDITIONS: purified JAK3 enzyme, 10 μM ATP, biotinylated peptide substrate, 1 hour at room temperature
REPORTED_METRIC: IC50 (µM)

Quickly give me recorded IC50 for COC1Cn2c3ccccc3c3c4c(c5c6ccccc6n(c5c32)CC1OC)C(=O)NC4=O (stereo not shown)
0.016

Tell me its IC50 given O=Cc1ccc2c(c1)c1c3c(c4c5cc(Br)ccc5n5c4c1n2CC(CO)C5)C(=O)NC3 (stereo not shown) as the entry.
0.013

(1) CN(C)CCNC(=O)OC1CCCn2c3ccccc3c3c4c(c5c6ccccc6n(c5c32)C1)C(=O)NC4=O (stereo not shown)
(2) CC(C)NC(=O)OC1Cn2c3ccccc3c3c4c(c5c6ccccc6n(c5c32)CC1O)C(=O)NC4=O (stereo not shown)
(3) O=C1NC(=O)c2c1c1c3ccccc3n3c1c1c2c2ccccc2n1CC(OC(=O)N1CCN(Cc2ccc4c(c2)OCO4)CC1)CC3 (stereo not shown)
Returns the items ordered by IC50, from maximum to minimum. Labels, requested order.
3, 1, 2

====

- TEST_SYSTEM: JAK3 (JH1 and JH2 domain) (Homo sapiens, UniProt P52333)
- MEASUREMENT_DESCRIPTION: JAK3 Kinase Assay (ELISA of peptide substrate phosphorylation)
- REPORTED_CONDITIONS: purified JAK3 enzyme, 10 μM ATP, biotinylated peptide substrate, 1 hour at room temperature
REPORTED_METRIC: IC50 (µM)

Let me know recorded IC50 for O=C(NCCCN1CCOCC1)OCC1Cn2c3ccccc3c3c4c(c5c6ccccc6n(c5c32)C1)C(=O)NC4 (stereo not drawn) , thanks.
0.278

(1) O=C1NCc2c1c1c3cc(Br)ccc3n3c1c1c2c2cc(CN4CCOCC4)ccc2n1CC(CO)C3 (stereo not drawn)
(2) CC(C)NC(=O)OC1CCn2c3ccccc3c3c4c(c5c6ccccc6n(c5c32)C1)C(=O)NC4=O (stereo not drawn)
(3) O=C1NC(=O)c2c1c1c3ccccc3n3c1c1c2c2ccccc2n1CC(OC(=O)N1CCN(C(c2ccccc2)c2ccccc2)CC1)CC3 (stereo not drawn)
(4) O=C1NC(=O)c2c1c1c3ccccc3n3c1c1c2c2ccccc2n1CC(OC(=O)N1CCN(CCc2ccccc2)CC1)C(O)C3 (stereo not drawn)
(5) CN(C)CCSCc1ccc2c(c1)c1c3c(c4c5ccccc5n5c4c1n2CC(O)C(O)C5)CNC3=O (stereo not drawn)
Sort the molecules on IC50; start with the lowest figure. Output spec: a listing of the labels in the requested order.
2, 5, 3, 4, 1
(2: 0.031 µM, 5: 0.309 µM, 3: 0.496 µM, 4: 0.916 µM, 1: 3.13 µM)

(A) O=C(NC1CCNCC1)OCC1(O)Cn2c3ccccc3c3c4c(c5c6ccccc6n(c5c32)C1)C(=O)NC4 (stereo not drawn)
(B) O=C1NC(=O)c2c1c1c3ccccc3n3c1c1c2c2ccccc2n1CC(OC(=O)N1CCN(CCN2CCOCC2)CC1)C(O)C3 (stereo not drawn)
Of the two listed items, which has the higher IC50? First: A Second: B Give the label of your selection.
B
(B: 0.516 µM, A: 0.154 µM)

====

- TEST_SYSTEM: JAK3 (JH1 and JH2 domain) (Homo sapiens, UniProt P52333)
- Sequence (P52333 521-1111 limits assumed): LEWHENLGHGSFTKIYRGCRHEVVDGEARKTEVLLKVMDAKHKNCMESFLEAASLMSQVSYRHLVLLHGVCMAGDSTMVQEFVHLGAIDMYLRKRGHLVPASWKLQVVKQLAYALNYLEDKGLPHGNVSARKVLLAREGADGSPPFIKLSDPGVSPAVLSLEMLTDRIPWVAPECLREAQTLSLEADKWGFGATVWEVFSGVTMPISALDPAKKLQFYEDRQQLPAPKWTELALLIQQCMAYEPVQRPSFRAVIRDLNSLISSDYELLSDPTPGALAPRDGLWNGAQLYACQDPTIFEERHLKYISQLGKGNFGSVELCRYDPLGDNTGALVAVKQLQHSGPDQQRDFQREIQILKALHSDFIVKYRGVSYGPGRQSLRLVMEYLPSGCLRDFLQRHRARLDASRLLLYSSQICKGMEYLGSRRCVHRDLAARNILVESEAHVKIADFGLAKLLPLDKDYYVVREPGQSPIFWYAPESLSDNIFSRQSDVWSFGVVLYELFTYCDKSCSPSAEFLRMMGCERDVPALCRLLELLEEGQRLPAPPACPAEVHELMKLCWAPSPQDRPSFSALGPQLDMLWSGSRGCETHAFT
- MEASUREMENT_DESCRIPTION: JAK3 Kinase Assay (ELISA of peptide substrate phosphorylation)
- REPORTED_CONDITIONS: purified JAK3 enzyme, 10 μM ATP, biotinylated peptide substrate, 1 hour at room temperature
pIC50: −log10 of the molar value.
REPORTED_METRIC: pIC50

Give the measured pIC50 for O=C1NC(=O)c2c1c1c3ccccc3n3c1c1c2c2ccccc2n1CC(OC(=O)N1CCOCC1)C(O)C3 (centres unmarked)
6.97

(P) COCCNC(=O)OC1Cn2c3ccccc3c3c4c(c5c6ccccc6n(c5c32)CC1O)C(=O)NC4=O (centres unmarked)
(Q) COc1ccccc1CNC(=O)OC1Cn2c3ccccc3c3c4c(c5c6ccccc6n(c5c32)CC1O)C(=O)NC4=O (centres unmarked)
(R) CC1(O)Cn2c3ccccc3c3c4c(c5c6ccccc6n(c5c32)CC1(C)O)C(=O)NC4 (centres unmarked)
(S) CN(C)c1ccc(CNC(=O)OC2Cn3c4ccccc4c4c5c(c6c7ccccc7n(c6c43)CC2O)C(=O)NC5=O)cc1 (centres unmarked)
Order the records so the highest pIC50 appears first and the lowest last. Please, when replying, give the labels in the order that was requested.
R, P, S, Q

====

- TEST_SYSTEM: JAK3 (JH1 and JH2 domain) (Homo sapiens)
- MEASUREMENT_DESCRIPTION: JAK3 Kinase Assay (ELISA of peptide substrate phosphorylation)
- REPORTED_CONDITIONS: purified JAK3 enzyme, 10 μM ATP, biotinylated peptide substrate, 1 hour at room temperature
REPORTED_METRIC: IC50 (nM)

Use these answered entries as a reference point.
Give the value of IC50 reported for the following: O=C1NCc2c1c1c3cc(/C=C/CNC4=NCCN4)ccc3n3c1c1c2c2ccccc2n1CC(CO)C3 (centres unmarked) [Cpd 221]
31

Answer with reported IC50 of NS(=O)(=O)c1ccc(CCNC(=O)OC2Cn3c4ccccc4c4c5c(c6c7ccccc7n(c6c43)CC2O)C(=O)NC5=O)cc1 (centres unmarked) [Cpd 105]
15

Consider the compound O=C1NC(=O)c2c1c1c3ccccc3n3c1c1c2c2ccccc2n1CC(OC(=O)N1CCCCC1)C(O)C3 (centres unmarked) [Cpd 99] and give its recorded IC50.
184

Determine from records and report IC50 for CC(C)NC(=O)C1(O)Cn2c3ccccc3c3c4c(c5c6ccccc6n(c5c32)CC1O)C(=O)NC4=O (centres unmarked) [Cpd 123]
80

For O=C1NC(=O)c2c1c1c3ccccc3n3c1c1c2c2ccccc2n1CC(O)(C(=O)NC(CO)CO)C(O)C3 (centres unmarked) [Cpd 118] , write its IC50.
36

Give IC50 for COc1ccccc1CNC(=O)OCC1(O)Cn2c3ccccc3c3c4c(c5c6ccccc6n(c5c32)C1)C(=O)NC4 (centres unmarked) [Cpd 174]
166

Identify IC50 associated with the compound O=C1NC(=O)c2c1c1c3ccccc3n3c1c1c2c2ccccc2n1CC(OC(=O)N1CCCNCC1)CC3 (centres unmarked) [Cpd 60]
156

Return IC50 for the following compound: O=C1NC(=O)c2c1c1c3ccccc3n3c1c1c2c2ccccc2n1CC(OC(=O)N1CCN(c2ccncc2)CC1)C(O)C3 (centres unmarked) [Cpd 96]
295

(P) O=C1NCc2c1c1c3ccccc3n3c1c1c2c2ccccc2n1CC(COC(=O)N1CCN(CCO)CC1)C3 (centres unmarked) [Cpd 164]
(Q) CN(C)CCCN1CCN(C(=O)C2(O)Cn3c4ccccc4c4c5c(c6c7ccccc7n(c6c43)CC2O)C(=O)NC5=O)CC1 (centres unmarked) [Cpd 126]
Pick one: P or Q . Which one has the lower reported IC50? Let me know the label of the one you choose.
Q

(1) O=C1NCc2c1c1c3cc(Br)ccc3n3c1c1c2c2ccccc2n1C/C=C\C3 [Cpd 6]
(2) O=C1NC(=O)c2c1c1c3ccccc3n3c1c1c2c2ccccc2n1CC(O)(C(=O)N1CCN(c2ccc(O)cc2)CC1)C(O)C3 (centres unmarked) [Cpd 129]
(3) O=C1NCc2c1c1c3ccccc3n3c1c1c2c2ccccc2n1CC(COC(=O)N1CC[C@@H](O)C1)C3 (some centres unmarked) [Cpd 168]
(4) O=C1NC(=O)c2c1c1c3ccccc3n3c1c1c2c2ccccc2n1CC(OC(=O)N1CCN(CCc2ccccc2)CC1)CC3 (centres unmarked) [Cpd 65]
(5) O=C(NC1CCN(Cc2ccccc2)CC1)OCC1(O)Cn2c3ccccc3c3c4c(c5c6ccccc6n(c5c32)C1)C(=O)NC4 (centres unmarked) [Cpd 145]
Arrange the 5 compounds by rising IC50, starting with the smallest. Respond with the label ranking, as requested.
5, 2, 1, 3, 4
